Numbers sourced from ChEMBL document CHEMBL1133105.

Known Reduction of T. cruzi parasite load of a selection of compounds
- Tested on: Trypanosoma cruzi
- Assay info: Percentage of activity against Trypanosoma cruzi at 6.25 uM Concentration
- Format: functional
Value expressed in %; do not type the unit.

Example cases with answers are listed next.
- COc1ccc2nc3cc(Cl)ccc3c(NCCCN(CCCNc3c4ccc(Cl)cc4nc4ccc(OC)cc34)C(=O)CCN3CCNCC3)c2c1: 0
- COc1ccc2nc3cc(Cl)ccc3c(NCCCCCCCCCCCCNc3c4ccc(Cl)cc4nc4ccc(OC)cc34)c2c1: 40
- COc1ccc2nc3cc(Cl)ccc3c(NCCCN(CCCNc3c4ccc(Cl)cc4nc4ccc(OC)cc34)C(=O)CCC(=O)O)c2c1: 0

Kindly review the next compound as well.
What the record says about COc1ccc2nc3cc(Cl)ccc3c(NCCCN(CCCNc3c4ccc(Cl)cc4nc4ccc(OC)cc34)C(=O)C(C)NC(=O)OC(C)(C)C)c2c1 (centres undefined) : Reduction of T. cruzi parasite load is 90
